# IC50 per record follows
Target: recombinant human GST-SYK (Homo sapiens)
Assay: Homogeneous Time-Resolved Fluorescence (HTRF) assay for the recombinant human SYK enzyme
Conditions: recombinant human GST-SYK 5 pM, ATP 25 μM, 10-dose titration; read-out: rhSYK Activity (IC50)

Compound	Target or test system	IC50
CN(c1ncc(-c2cccc(Nc3nccc(C(F)(F)F)n3)c2)s1)C1CCOC1 (stereo not drawn)	recombinant human GST-SYK (Homo sapiens)	≤ 0.1 µM
Cc1cc(Nc2nccc(C(C)C)n2)cc(-c2cnc(N3CCCNC(=O)C3)s2)c1	recombinant human GST-SYK (Homo sapiens)	≤ 0.1 µM
Cc1cc(CNc2ncc(-c3cccc(Nc4nccc(C(F)(F)F)n4)c3)s2)nn1C	recombinant human GST-SYK (Homo sapiens)	≤ 0.1 µM
